Tested on: SR leukemia
Experimental Details: NCI-60 one-dose screen, 48 h (100 = growth as untreated, 0 = no growth, -100 = all killed)
Stated Conditions: 10 µM
The panel holds about 83,000 compounds, 20% with a hit somewhere; the sample as a whole holds those more often.
Flag rule - growth less than 70% flags true; the remaining entries get false.

COc1ccc2c(c1)sc1nc(-c3ccccc3)c(-c3cccnc3)n12 = false
Cc1cccc(NC2=C(C#N)C(=O)NC3(CCCC3)S2)c1 = false
COc1cc(-c2nc(Nc3nc4ccccc4s3)[nH]c(=O)c2C#N)cc(OC)c1O = false

[ask] For "COc1ccc(OC)c(/C=C/c2nnc(Nc3ccc(Cl)cc3)o2)c1" , is the recorded growth below the cut-off of 70%?
[reply] false

[ask] For "COc1cc(-c2cc(C(=O)N3CCN(C(=O)c4ccccc4NCc4ccco4)CC3)nc3cc(-c4ccccc4)nn23)cc(OC)c1OC" , is the recorded growth below the cut-off of 70%?
[reply] true

[ask] For Nc1ncn(C2OC(CO)C(O)C2O)c(=O)n1 (stereo not given) , is the recorded growth below the cut-off of 70%?
[reply] true

[ask] For "O=c1cc(-c2ccccc2)[nH]n1-c1nc2ccccc2[nH]1" , is the recorded growth below the cut-off of 70%?
[reply] true

[ask] For "COc1ccc(OC)c(NC(=O)c2sc3nc4c(cc3c2N)C(=O)CCC4)c1" , is the recorded growth below the cut-off of 70%?
[reply] false

[ask] For "Cc1cc(C)c(NC(=O)c2sc3nc4c(cc3c2N)C(=O)CCC4)c(C)c1" , is the recorded growth below the cut-off of 70%?
[reply] true

[ask] For CC1(O)CCC2CC3OC3(C)CCC3OC3(C)CCC1C2(C)C (stereo not given) , is the recorded growth below the cut-off of 70%?
[reply] false

----------
Tested on: T-47D breast
Experimental Details: NCI-60 one-dose screen, 48 h
Stated Conditions: 10 µM
About 83,000 compounds went through this panel and 20% of them were active in at least one assay; those are over-represented in the sample as a whole. The source made the active and inactive calls. How the source made its calls: active means growth percent below 10; inactive means the rest.
Choose one outcome from this list and give only that: active, inactive

Please review the following examples before continuing.
O=C(/C=C/c1cc2ccccc2[nH]c1=O)c1ccc2c(c1)OCO2 = inactive
CCN(CC)CCOc1nc2cc(OC)c(OC)cc2c2c1-c1ccc(OC)cc1C2=O = inactive

Attention now turns to another entry.
[ask] What classification did "CCOC(=O)CNC(=O)CCCCSc1ncnc2nc[nH]c12" end up with in this test?
[reply] inactive

----------
Test system: RPMI-8226 leukemia
Experimental Details: NCI-60 one-dose screen, 48 h (100 = growth as untreated, 0 = no growth, -100 = all killed)
Stated Conditions: 10 µM
Method: Growth inhibition of the RPMI-8226 human tumor cell line is measured as a screen for anti-cancer activity. Cells are grown in 96 well plates and exposed to the test compound for 48 hours. Compounds are tested at a single concentration, which is 10^-5 M for most compounds. The reported endpoint is percent growth (GI% or GIPRCNT), where numbers from 0 - 100% represent growth inhibition, and numbers from -100% - 0 represent cell death. For example, a value of 40 represents 60% growth inhibition. […]
Compounds without any hit were thinned out: in the full panel of roughly 83,000, 20% have a hit.
Quantity Measured: growth (%)
Give just the numeric value; % need not be written.

Cc1cccc2c1O/C(=C\c1ccc([N+](=O)[O-])o1)C2=O = -34.7

[ask] Please report the recorded growth for "COc1ccc(-c2nc3sccn3c2-c2nc3c([nH]2)C(=O)c2ccccc2C3=O)cc1" .
[reply] 74.7

[ask] Please report the recorded growth for "CC(=O)[C@H]1CC[C@H]2[C@@H]3CCC4=CC(=O)C=C[C@]4(C)[C@H]3CC[C@]12C" .
[reply] 68

[ask] Please report the recorded growth for "COC(=O)c1ccc(=O)oc1" .
[reply] 93.7

[ask] Please report the recorded growth for "c1ccc2c(c1)oc1c3cccnc3ccc21" .
[reply] 97.1

[ask] Please report the recorded growth for "Nc1c(C(=O)Nc2ccccc2)sc2nc3c(cc12)CCCC3" .
[reply] 15.4

[ask] Please report the recorded growth for C=C(NC(=O)C(=C)NC(=O)c1csc(C2=NC3c4csc(n4)C4NC(=O)c5csc(n5)C(C(C)(O)C(C)O)NC(=O)C5CSC(=N5)/C(=C/C)NC(=O)C(C(C)O)NC(=O)c5csc(n5)C3(CC2)NC(=O)C(C)NC(=O)C(=C)NC(=O)C(=C)NC(=O)C(C(C)C)NC2C=Cc3c(C(C)O)cc(nc3C2O)C(=O)OC4C)n1)C(N)=O (centres undefined) .
[reply] -37.1

[ask] Please report the recorded growth for "CCCCCCCCCCCC[n+]1ccc(C(N)=O)cc1" .
[reply] -6.05

[ask] Please report the recorded growth for Nc1c(C(=O)Nc2cccc(Br)c2)sc2nc3c(cc12)C(O)CCC3 (centres undefined) .
[reply] 14.7

[ask] Please report the recorded growth for "Nc1nc(N=Nc2ccc(O)cc2)cc(=O)[nH]1" .
[reply] 106

[ask] Please report the recorded growth for "O=C(Nc1cccc(-n2cc(-c3ccncc3)c(-c3cc(O)cc(Cl)c3)n2)c1)c1ccc(N2CCOCC2)c(C(F)(F)F)c1" .
[reply] -3.77

[ask] Please report the recorded growth for "Nc1ccc2cc(S(=O)(=O)O)cc(O)c2c1N=Nc1ccc(F)cc1" .
[reply] 106

[ask] Please report the recorded growth for "COc1ccc(/C=C2/CN(C(=O)c3ccccc3F)C/C(=C\c3ccc(OC)cc3)C2=O)cc1" .
[reply] -19

[ask] Please report the recorded growth for "N#CCCN1C/C(=C/c2ccc(Br)cc2)C(=O)/C(=C/c2ccc(Br)cc2)C1" .
[reply] -14

[ask] Please report the recorded growth for "O=C1/C(=C/c2ccc([N+](=O)[O-])s2)Oc2ccccc21" .
[reply] 0.673

[ask] Please report the recorded growth for "COc1ccc(-c2nc3sc(C4CC4)nn3c2/C=C2/C(=O)Nc3ccc(OC)cc32)cc1" .
[reply] 58

[ask] Please report the recorded growth for "Cn1c(C(N)=O)cc2c1-c1nc(Nc3ccccc3)ncc1CCC2" .
[reply] 53.2

[ask] Please report the recorded growth for "O=C(Nc1ccc(CN2CCc3nc4cc(O)c(O)cc4cc32)cc1)c1ccc(Cl)c(Cl)c1" .
[reply] 103

[ask] Please report the recorded growth for "CN(C)c1ccc(Cc2ccc(N(C)C)cc2Cl)c(Cl)c1" .
[reply] 81.1

----------
System: NCI-H226 lung
Experimental Details: NCI-60 one-dose screen, 48 h
Stated Conditions: 10 µM
Compounds without any hit were thinned out: in the full panel of roughly 83,000, 20% have a hit. The source made the active and inactive calls. The calls were made as follows: active = growth percent below 10; inactive = the rest.
Choose one outcome from this list and give only that: yes (active), no (inactive)

Please review the following examples before continuing.
CC(C)=CCc1cc(O)cc2c1OC(C=C(C)C)C1=C2C(=O)C2=C(NCCS2(=O)=O)C1=O (stereo not given) = yes
COc1cc(/C=C2\Oc3cc(OCC(=O)c4ccccc4)ccc3C2=O)cc(OC)c1OC = no

[ask] What classification did "O=c1[nH]c2ccc(Cl)cc2c2ccccc12" end up with in this test?
[reply] no

[ask] What classification did "O=C(Nc1cccc(-n2cc(-c3ccncc3)c(-c3ccc(O)c(Cl)c3)n2)c1)c1cc(C(F)(F)F)cc(C(F)(F)F)c1" end up with in this test?
[reply] no

[ask] What classification did "Cc1ccc(S(=O)(=O)Oc2ccc3c4c(c(=O)oc3c2)CCCCC4)cc1" end up with in this test?
[reply] no

----------
Tested on: A549/ATCC NSCLC
Experimental Details: NCI-60 one-dose screen, 48 h
Stated Conditions: 10 µM
About 83,000 compounds went through this panel and 20% of them were active in at least one assay; those are over-represented in the sample as a whole. The source made the active and inactive calls. How the source made its calls: active means growth percent below 10; inactive means the rest.
Choose one outcome from this list and give only that: active, inactive

Please review the following examples before continuing.
CC/C(=C(/c1ccc(OCCN(C)C)cc1)c1ccc(OC(=O)CCCCCCCCC(=O)c2c(C)[nH]c(/C=C3\N=C(c4ccc[nH]4)C=C3OC)c2C)cc1)c1ccccc1 = inactive
COc1ccc(OC)c(NC(=O)c2sc3nc4c(cc3c2N)C(=O)CCC4)c1 = inactive
CCOC(=O)c1ccoc1 = inactive
CCN(CC)CCSCCCNc1c2ccc(Cl)cc2nc2ccc(OC)cc12 = active
O=C(CCCCCCC(=O)Nc1cccnc1)NO = inactive
ClCCOCCn1cnc2c(Cl)nc(Cl)nc21 = inactive
CC(C)=CCc1cc(O)cc2c1OC(C=C(C)C)C1=C2C(=O)C2=C(NCCS2(=O)=O)C1=O (centres undefined) = active
O=c1cc(-c2ccccc2)[nH]n1-c1nc2ccccc2[nH]1 = inactive

Attention now turns to another entry.
[ask] What classification did "COc1ccc(-c2nn(-c3cccc(NC(=O)c4cccc(C(F)(F)F)c4)c3)cc2-c2ccncc2)cc1Cl" end up with in this test?
[reply] inactive
